meta.source: PubChem BioAssay

# method_notes: ovarian cancer cell viability with rucaparib, profiling panel, oncology-focused library, rucaparib conditional (AID 1508598)
# protocol_conditions: patient-derived ovarian cancer cells, CellTiter-Glo viability, 144 h; at 0.313 µM; OCI-P5x cells; with rucaparib 20 µM; 100% = cells with rucaparib alone
Active and inactive are the calls of the source.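 Rule for the calls: active = normalized viability below 100% at a tested concentration; inactive = the rest.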
Your reply should match one of these outcome classes. Yes (active), No (inactive)

Field: example entries. Status: answers known.
                      smiles_representation  discrete_label
0  Nc1nc(F)nc2c1ncn2[C@@H]1O[C@H](COP(=O)(O)O)[C@@H](O)[C@@H]1O              No
1  Cn1cc(C2=C(c3ccc(Cl)cc3Cl)C(=O)NC2=O)c2ccccc21             Yes
2        NC(=O)Nc1sc(-c2ccc(F)cc2)cc1C(N)=O             Yes
3  C[C@H](NC(=O)Cc1cc(F)cc(F)c1)C(=O)N[C@H](C(=O)OC(C)(C)C)c1ccccc1              No

Enquiry: For this molecule, state the assay outcome: `O=c1cc(N2CCOCC2)oc2c(-c3ccccc3)cccc12`
Return: Yes

###

# method_notes: inhibition of 3D7 malaria parasite growth – strain 3D7 (AID 2306);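 note: 0% = DMSO wells and 100% = chloroquine plus artemisinin control wells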
# protocol_conditions: P. falciparum 3D7 erythrocytic growth, LDH absorbance, 72 h; at 2 µM; hits give high values
quantity: growth inhibition (%)
Just the number in %, nothing appended.

The cases that follow already have their growth inhibition on record.
In [3]: df
Out[3]:
                                   compound           quantity  obs_value
0  Nc1ncc(-c2ccc3nccc(-c4ccncc4)c3c2)cc1S(=O)(=O)N1CCCCC1  growth inhibition        100
1  CNc1ccc(CNCc2cccc(-c3ccc(-c4nc5c(C)cccc5[nH]4)s3)c2)cc1  growth inhibition        101
2  COCCNCc1cccc(-c2ccc3c(Nc4ccc(Oc5ccccc5)cc4)ccnc3c2)c1  growth inhibition        101
3  COc1c(CN2CCOCC2)cccc1-c1cc2c(-c3ccc(C(=O)O)c(C(C)C)c3)ccnc2[nH]1  growth inhibition         98
4  Cc1cccc2[nH]c(-c3ccc(-c4ccc(NC(=O)NCc5ccc(F)cc5)cc4)cc3)nc12  growth inhibition        100

Enquiry: Note growth inhibition for the compound shown: CCCCNC(=O)C1CCCN(C(=O)c2ccc(O)c(-c3ccc(Cl)c(Cl)c3)c2)C1 (centres undefined)
Return: 83

Enquiry: Note growth inhibition for the compound shown: `O=C(/C=C/c1ccc(CNCCN2CCOCC2)cc1)NCCc1ccccc1`
Return: 94

Enquiry: Note growth inhibition for the compound shown: `CCN1CCC(N(Cc2ccc(-c3ccc(C(F)(F)F)cc3)cc2)C(=O)Cn2c(SCc3ccc(F)cc3)nc(=O)c3c2CCC3)CC1`
Return: 90

Enquiry: Note growth inhibition for the compound shown: `O=C(NCCc1ccccc1)N(Cc1cccc(-c2ccc(CNCCc3ccccc3)cc2)c1)C1CCN(Cc2ccccc2)CC1`
Return: 90

###

# method_notes: HepG2 cytotoxicity, primary screen, cytotoxicity control for P. falciparum antimalarial project, cell-based, ATP luminescence (AID 2303);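 note: 0% = DMSO wells and 100% = digitonin-killed cells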
# protocol_conditions: HepG2 viability, 24-48 h, at 10 µM, hits give high values
Entries whose inhibition is below 20% take 1; entries at or above 20% take 0.

In [3]: df
Out[3]:
                      smiles_representation  discrete_label
0  CCn1c(-c2nonc2N)nc2c(-c3cccc(NC(=O)Nc4ccccc4OC)c3)ncc(OCCCN)c21               0

Enquiry: In the record for `Cc1cc(N(C)C)nc(Nc2ccc(NC(=O)c3c(F)cccc3Cl)cc2)n1` , is inhibition less than 20%?
Return: 1

Enquiry: In the record for `Cc1ccc(Nc2nc3cc(N(C)c4ccnc(Nc5cccc(CCS(C)(=O)=O)c5)n4)ccc3n2C)cc1` , is inhibition less than 20%?
Return: 0

Enquiry: In the record for `O=C(Nc1cccc(-c2csc(-c3ccccc3)n2)c1)c1cccs1` , is inhibition less than 20%?
Return: 1

Enquiry: In the record for `O=C(Cc1ccc(Nc2nccc(Nc3cccc4[nH]ncc34)n2)cc1)Nc1ccc(C(F)(F)F)cc1` , is inhibition less than 20%?
Return: 1

Enquiry: In the record for `O=C(Nc1ccc(-c2ccc(-c3nc4ccc(C(F)(F)F)cc4[nH]3)s2)cc1)c1cnc[nH]1` , is inhibition less than 20%?
Return: 0

Enquiry: In the record for `O=C(NCCc1ccccc1)N(Cc1ccccc1-c1cccc(CNC2CCCC2)c1)C1CCN(Cc2ccccc2)CC1` , is inhibition less than 20%?
Return: 0

Enquiry: In the record for `CCOc1ccc(C(=O)Nc2cc(Br)c3c(c2)CNCC3)cc1C(F)(F)F` , is inhibition less than 20%?
Return: 1

Enquiry: In the record for `N#Cc1ccc(C(=O)Nc2cc(-c3cccc(O)c3)cc3[nH]ncc23)cc1` , is inhibition less than 20%?
Return: 1

###

# target_or_system: Plasmodium falciparum protein kinase 6 (PK6, PF3D7_1337100) (UniProt Q8IDW1)
# method_notes: PfPK6 kinase inhibitors, biochemical, TCAMS library (AID 1159586)
# protocol_conditions: recombinant PfPK6, Kinase-Glo ATP depletion luminescence
Measured potencies and affinities stand elsewhere. Calls of active or inactive are those of the source. No rule for the calls is given here.
quantity: outcome

The cases that follow already have their outcome on record.
>>> print(df.to_string())
                      smiles_representation  quantity  obs_value
0  Cc1nc2ccc(S(=O)(=O)Nc3ccc(C(=O)N[C@@H](CCC(=O)O)C(=O)O)cc3)cc2c(=O)[nH]1   outcome   inactive
1  CC(C)c1ccc(N(CC(=O)N/N=C/c2ccc(C(F)(F)F)cc2)S(=O)(=O)c2ccc(C(F)(F)F)cc2)cc1   outcome   inactive
2  c1ccc(CN2CCN(CCCCNc3c4ccccc4nc4ccccc34)CC2)cc1   outcome   inactive
3  Cc1cc2c(cc1C(F)(F)F)N(C(=O)Nc1ccc(C(=O)NCCN3CCCC3)cc1)CC2   outcome   inactive
4  O=C(c1cc(-c2ccccc2)n[nH]1)N1CCN(S(=O)(=O)c2ccc(Cl)s2)CC1   outcome   inactive
5  Cc1cc(N[C@@H](CC(C)C)C(=O)NCCc2ccccc2)nc(Nc2ccccc2)n1   outcome   inactive
6  Cc1[nH]c(C)c(-c2ccc(Oc3ccc(Cl)c(Cl)c3)cc2)c(=O)c1Br   outcome   inactive
7  Cc1cccc(Nc2nc(N[C@@H]3CCCNC3)nc3cc[nH]c(=O)c23)c1   outcome   inactive

Enquiry: Note outcome for the compound shown: `CCOC(=O)c1nc2ccc(SC3CCCCC3)cn2c1Br`
Return: inactive

###

# target_or_system: L-lactate dehydrogenase (Plasmodium falciparum (isolate CDC / Honduras)) (UniProt Q27743)
# Sequence (Q27743 whole entry, looked up): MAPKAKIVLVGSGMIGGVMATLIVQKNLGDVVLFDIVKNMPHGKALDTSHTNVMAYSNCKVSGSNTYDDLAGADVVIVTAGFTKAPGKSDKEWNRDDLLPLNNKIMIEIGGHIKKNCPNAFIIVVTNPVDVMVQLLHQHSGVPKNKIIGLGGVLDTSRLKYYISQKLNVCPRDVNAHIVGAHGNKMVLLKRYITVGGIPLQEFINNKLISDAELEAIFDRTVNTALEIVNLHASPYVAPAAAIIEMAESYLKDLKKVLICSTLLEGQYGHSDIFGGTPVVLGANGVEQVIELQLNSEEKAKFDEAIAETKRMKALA
# method_notes: PfLDH activity inhibition – cell lysate, 3D7 strain, counter-screen for P. falciparum growth inhibition project (AID 2304);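 note: 0% = vehicle and 100% = reference inhibitor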
# protocol_conditions: P. falciparum 3D7 crude extract, LDH APAD/NBT absorbance; at 2 µM; hits give high values
quantity: inhibition (%)
Just the number in %, nothing appended.

>>> print(df.to_string())
                                   compound                          target_or_system    quantity  obs_value
0  O=C(Nc1ccc(-c2nc3ccccc3[nH]2)cc1)c1ccc(N2CCCC2)c([N+](=O)[O-])c1  L-lactate dehydrogenase (Plasmodium falciparum (isolate CDC / Honduras)) (UniProt Q27743)  inhibition         -1
1  O=S(=O)(c1c(Cl)cc(Cl)cc1Cl)N1CCCCC(c2ccc(F)c(F)c2)=N1  L-lactate dehydrogenase (Plasmodium falciparum (isolate CDC / Honduras)) (UniProt Q27743)  inhibition         -1
2                 O=C(O)CCSc1ncnc2nc[nH]c12  L-lactate dehydrogenase (Plasmodium falciparum (isolate CDC / Honduras)) (UniProt Q27743)  inhibition          6
3  COc1ccc(N2CCN(CCCCNC(=O)c3ccc(NC(=O)c4ccc(Cl)cc4)cc3)CC2)c(C)c1  L-lactate dehydrogenase (Plasmodium falciparum (isolate CDC / Honduras)) (UniProt Q27743)  inhibition          0

Enquiry: Note inhibition for the compound shown: `Clc1ccc(CNCCCCCCCNCc2ccc(Cl)c(Cl)c2)cc1Cl`
Return: -7

Enquiry: Note inhibition for the compound shown: `Cc1sc(C)c(CNCCCNc2cc(=O)c3ccccc3[nH]2)c1Br`
Return: -2

Enquiry: Note inhibition for the compound shown: `Cc1ccc(NC(=O)Nc2ccccc2F)cc1-c1ccc(C(=O)Nc2ccncc2)cc1`
Return: 3

Enquiry: Note inhibition for the compound shown: `CC(C)(CNCc1ccc(Cl)c(Cl)c1)c1nc(-c2ccc(Cl)c(O)c2)c(-c2ccncc2)[nH]1`
Return: -3

Enquiry: Note inhibition for the compound shown: `COc1ccc2c(c1)CCN(CCN1CCC(CNC(=O)c3ccc(-c4ccc(C#N)cc4)cc3)CC1)C2`
Return: 2

Enquiry: Note inhibition for the compound shown: `c1ccc2sc(-c3csc(Nc4ccncc4)n3)nc2c1`
Return: -1

Enquiry: Note inhibition for the compound shown: `CCN(CCCN1CCCCC1)c1cc(C)nc(Nc2ccc3c(c2)CCC3)n1`
Return: 5

Enquiry: Note inhibition for the compound shown: `Cc1[nH]c(C)c(-c2ccc(Oc3ccc(Cl)cc3)c(Cl)c2)c(=O)c1Br`
Return: -1
